Tested on: PC-3
Experiment: Antimigratory activity against human PC3 prostate cancer cell line at 100 nM after 12h
Assay type: functional
Details: PC-3, 12 h
Each record here notes measured inhibition at 0.1 µM.
Give just the number in %; leave the unit off.

Query: Return reported inhibition at 0.1 µM; argument: COc1ccc(OC)c([C@@H]2C[C@H]3[C@@H]4CC=C5C[C@@H](O)CC[C@]5(C)[C@H]4CC[C@]3(C)[C@H]2C(C)=O)c1
Response: 5

Query: Return reported inhibition at 0.1 µM; argument: COc1ccc(OC)c([C@@H]2C[C@H]3[C@@H]4CC=C5C[C@@H](O[C@H]6O[C@@H](C)[C@@H](O)[C@@H](O)[C@@H]6O)CC[C@]5(C)[C@H]4CC[C@]3(C)[C@H]2[C@H](C)O[C@H]2O[C@@H](C)[C@@H](O)[C@@H](O)[C@@H]2O)c1
Response: -41

Query: Return reported inhibition at 0.1 µM; argument: COc1ccc(OC)c([C@@H]2C[C@H]3[C@@H]4CC=C5C[C@@H](O[C@H]6O[C@@H](C)[C@@H](O)[C@@H](O)[C@@H]6O)CC[C@]5(C)[C@H]4CC[C@]3(C)[C@H]2C(C)=O)c1
Response: -23

Query: Return reported inhibition at 0.1 µM; argument: COc1ccc(OC)c([C@@H]2C[C@H]3[C@@H]4CC=C5C[C@@H](O[C@@H]6O[C@H](CO[C@H]7O[C@H](CO)[C@@H](O)[C@H](O)[C@H]7O)[C@@H](O)[C@H](O)[C@H]6O)CC[C@]5(C)[C@H]4CC[C@]3(C)[C@H]2C(C)=O)c1
Response: -7
